- Organism: Rattus norvegicus
- Method: Open TG-GATES - Regimen: Daily Repeat
- Format: toxicity, organism-based, Sprague-Dawley
- Set-up: regimen Daily Repeat, gender Male, age 6 weeks
- Condition: in vivo, po, 0 mg/kg, […], tissue Blood, route gavage, dose level Control, time 28 day
Assay Endpoint: Hb (g/dL)
Value expressed in g/dL; do not type the unit.

// below: answered compounds
[[record]]
compound = "COc1ccc2[nH]c([S+]([O-])Cc3ncc(C)c(OC)c3C)nc2c1 (stereo unspecified)"
assay_endpoint = "Hb"
reported_measurement = 15.6

[[record]]
compound = "CN(C)CCN(Cc1cccs1)c1ccccn1"
assay_endpoint = "Hb"
reported_measurement = 14.7

[[record]]
compound = "CCCNC(=O)NS(=O)(=O)c1ccc(Cl)cc1 [CHLORPROPAMIDE]"
assay_endpoint = "Hb"
reported_measurement = 14.9

[[record]]
compound = "O=C(CCCN1CCC(O)(c2ccc(Cl)cc2)CC1)c1ccc(F)cc1"
assay_endpoint = "Hb"
reported_measurement = 15.1

[[record]]
compound = "CCOC(=O)CCC(=O)O[C@H]1[C@H](O[C@@H]2[C@@H](C)[C@H](O[C@H]3C[C@@](C)(OC)[C@@H](O)[C@H](C)O3)[C@@H](C)C(=O)O[C@H](CC)[C@@](C)(O)[C@H](O)[C@@H](C)C(=O)[C@H](C)C[C@@]2(C)O)O[C@H](C)C[C@@H]1N(C)C [ERYTHROMYCIN ETHYLSUCCINATE]"
assay_endpoint = "Hb"
reported_measurement = 15.2


# ---- query compound ----
Reported Hb for NNC(=O)c1ccncc1 : what is it?
15.5

====

Recorded measurements of Neu, one per entry
- Species: Rattus norvegicus
- Method: Open TG-GATES - Regimen: Single
- Type: toxicity, organism-based, Sprague-Dawley
- Set-up: regimen Single, gender Male, age 6 weeks
- Condition: in vivo, po, 100 mg/kg, 6 h, tissue Blood, route gavage, dose level Low
Field format: number, assumed %, no unit text.

Please review the following examples before continuing.
[[record]]
molecule = "COc1ccc2[nH]c([S+]([O-])Cc3ncc(C)c(OC)c3C)nc2c1 (centres undefined)"
assay_endpoint = "Neu"
reported_measurement = 18.8

[[record]]
molecule = "NC(N)=Nc1nc(CSCCC(N)=NS(N)(=O)=O)cs1"
assay_endpoint = "Neu"
reported_measurement = 22.8

[[record]]
molecule = "CCOC(=O)CCC(=O)O[C@H]1[C@H](O[C@@H]2[C@@H](C)[C@H](O[C@H]3C[C@@](C)(OC)[C@@H](O)[C@H](C)O3)[C@@H](C)C(=O)O[C@H](CC)[C@@](C)(O)[C@H](O)[C@@H](C)C(=O)[C@H](C)C[C@@]2(C)O)O[C@H](C)C[C@@H]1N(C)C [ERYTHROMYCIN ETHYLSUCCINATE]"
assay_endpoint = "Neu"
reported_measurement = 18.8


// below: Neu requested for another molecule
Give the measured Neu of COC1=CC(=O)C[C@@H](C)[C@]12Oc1c(Cl)c(OC)cc(OC)c1C2=O .
20

====

Recorded gamma-GTP values for a group of compounds are listed next.
- Organism: Rattus norvegicus
- Method: Open TG-GATES - Regimen: Single
- Type: toxicity, organism-based, Sprague-Dawley
- Design: regimen Single, gender Male, age 6 weeks
- Condition: in vivo, po, 100 mg/kg, 6 h, tissue Plasma, route gavage, dose level High
Numeric answer only, unit IU/L assumed.

[[record]]
compound = "CN(C)CCCN1c2ccccc2CCc2ccccc21 [IMIPRAMINE]"
reported_measurement = 1.2

[[record]]
compound = "CN(C)CCN(Cc1cccs1)c1ccccn1"
reported_measurement = 1

[[record]]
compound = "CN(C)CCCN1c2ccccc2CCc2ccc(Cl)cc21 [CLOMIPRAMINE]"
reported_measurement = 1


Now look at this entry.
Could you share which gamma-GTP value was measured for CC1=C(/C=C/C(C)=C/C=C/C(C)=C/CO)C(C)(C)CCC1 [RETINOL] ?
1

====

- Species on record: Rattus norvegicus
- Method: Open TG-GATES - Regimen: Single
- Type: toxicity, organism-based, Sprague-Dawley
- Set-up: regimen Single, gender Male, age 6 weeks
- Condition: in vivo, po, 0 mg/kg, 9 h, route gavage, dose level Control
TERMINAL_BW values by entry
Form entry: value (g) — number only.

Consider the worked cases shown below.
[[record]]
molecule = "CN(C)CCCN1c2ccccc2CCc2ccccc21"
assay_endpoint = "TERMINAL_BW"
reported_measurement = 200.5

[[record]]
molecule = "CC1=C(/C=C/C(C)=C/C=C/C(C)=C/CO)C(C)(C)CCC1"
assay_endpoint = "TERMINAL_BW"
reported_measurement = 198.5


Moving on to another molecule below.
Entry under review: CCOC(=O)CCC(=O)O[C@H]1[C@H](O[C@@H]2[C@@H](C)[C@H](O[C@H]3C[C@@](C)(OC)[C@@H](O)[C@H](C)O3)[C@@H](C)C(=O)O[C@H](CC)[C@@](C)(O)[C@H](O)[C@@H](C)C(=O)[C@H](C)C[C@@]2(C)O)O[C@H](C)C[C@@H]1N(C)C [ERYTHROMYCIN ETHYLSUCCINATE] . Reported TERMINAL_BW?
212

====

- Species: Rattus norvegicus
- Method: Open TG-GATES - Regimen: Single
- Assay type: toxicity, organism-based, Sprague-Dawley
- Design: regimen Single, gender Male, age 6 weeks
- Condition: in vivo, po, 30 mg/kg, 9 h, tissue Blood, route gavage, dose level Middle
Let's look at some compounds and their measured Ht.
Reply numerically in %, unit not repeated.

[[record]]
compound = "CN(C)CCCN1c2ccccc2CCc2ccccc21 [IMIPRAMINE]"
unit_label = "%"
reported_measurement = 42.1

[[record]]
compound = "CN(C)CCCN1c2ccccc2CCc2ccc(Cl)cc21 [CLOMIPRAMINE]"
unit_label = "%"
reported_measurement = 42.6

[[record]]
compound = "CN(C)CCN(Cc1cccs1)c1ccccn1"
unit_label = "%"
reported_measurement = 38.4


Moving on to another compound below.
Any idea what Ht was measured for CC1=C(/C=C/C(C)=C/C=C/C(C)=C/CO)C(C)(C)CCC1 [RETINOL] ?
38.5

====

- Species on record: Rattus norvegicus
- Method: Open TG-GATES - Regimen: Single
- Type: toxicity, organism-based, Sprague-Dawley
- Parameters: regimen Single, gender Male, age 6 weeks
- Condition: in vivo, po, 30 mg/kg, 6 h, tissue Blood, route gavage, dose level Middle
Attribute: Fbg
Numbers only here, please. The scale is mg/dL.

[[record]]
molecule = "CC1=C(/C=C/C(C)=C/C=C/C(C)=C/CO)C(C)(C)CCC1 [RETINOL]"
assay_endpoint = "Fbg"
unit_label = "mg/dL"
reported_measurement = 302.4

[[record]]
molecule = "CN(C)CCCN1c2ccccc2CCc2ccc(Cl)cc21 [CLOMIPRAMINE]"
assay_endpoint = "Fbg"
unit_label = "mg/dL"
reported_measurement = 241.2

[[record]]
molecule = "CN(C)CCN(Cc1cccs1)c1ccccn1"
assay_endpoint = "Fbg"
unit_label = "mg/dL"
reported_measurement = 292.6


Below: the item to evaluate.
I have this molecule here, CN(C)CCCN1c2ccccc2CCc2ccccc21 [IMIPRAMINE] , and I need its recorded Fbg.
311.6

====

- Organism: Rattus norvegicus
- Method: Open TG-GATES - Regimen: Daily Repeat
- Format: toxicity, organism-based, Sprague-Dawley
- Design: regimen Daily Repeat, gender Male, age 6 weeks
- Condition: in vivo, po, 10 mg/kg, […], tissue Plasma, route gavage, dose level Low, time 28 day
Assay Endpoint: RALB (g/dL)
Give a bare numeral; the unit g/dL is implied.

[[record]]
molecule = "CC(C)OC(=O)C(C)(C)Oc1ccc(C(=O)c2ccc(Cl)cc2)cc1 [FENOFIBRATE]"
reported_measurement = 2.8

[[record]]
molecule = "CC1=C(/C=C/C(C)=C/C=C/C(C)=C/CO)C(C)(C)CCC1 [RETINOL]"
reported_measurement = 3.2


Dear colleague, I am looking for the recorded RALB of the following molecule: CN(C)CCCN1c2ccccc2CCc2ccccc21 [IMIPRAMINE]
2.8

Try CN(C)CCN(Cc1cccs1)c1ccccn1 next.
3.2

====

- Species on record: Rattus norvegicus
- Method: Open TG-GATES - Regimen: Single
- Type: toxicity, organism-based, Sprague-Dawley
- Design: regimen Single, gender Male, age 6 weeks
- Condition: in vivo, po, 0 mg/kg, 6 h, tissue Plasma, route gavage, dose level Control
Criterion: RALB strictly under 3 g/dL. Met: met. Not met: not met.

Observe how each entry below is paired with its result.
[[record]]
compound = "NC(N)=Nc1nc(CSCCC(N)=NS(N)(=O)=O)cs1 [FAMOTIDINE]"
assigned_category = "not met"

[[record]]
compound = "COc1cc2c(c(OC)c1OC)-c1ccc(OC)c(=O)cc1[C@@H](NC(C)=O)CC2 [COLCHICINE]"
assigned_category = "not met"

[[record]]
compound = "O=C(CCCN1CCC(O)(c2ccc(Cl)cc2)CC1)c1ccc(F)cc1 [HALOPERIDOL]"
assigned_category = "not met"

[[record]]
compound = "NNC(=O)c1ccncc1 [ISONIAZID]"
assigned_category = "not met"

[[record]]
compound = "CCCNC(=O)NS(=O)(=O)c1ccc(Cl)cc1 [CHLORPROPAMIDE]"
assigned_category = "met"


# check: RALB < 3 g/dL for CN(C)CCCN1c2ccccc2CCc2ccccc21 [IMIPRAMINE]
met

Also need CN1C(=O)CN=C(c2ccccc2)c2cc(Cl)ccc21 [DIAZEPAM] , thanks.
not met
